- measured on: delta-opioid receptor (DOR) (Homo sapiens)
- Sequence (P41143 whole entry): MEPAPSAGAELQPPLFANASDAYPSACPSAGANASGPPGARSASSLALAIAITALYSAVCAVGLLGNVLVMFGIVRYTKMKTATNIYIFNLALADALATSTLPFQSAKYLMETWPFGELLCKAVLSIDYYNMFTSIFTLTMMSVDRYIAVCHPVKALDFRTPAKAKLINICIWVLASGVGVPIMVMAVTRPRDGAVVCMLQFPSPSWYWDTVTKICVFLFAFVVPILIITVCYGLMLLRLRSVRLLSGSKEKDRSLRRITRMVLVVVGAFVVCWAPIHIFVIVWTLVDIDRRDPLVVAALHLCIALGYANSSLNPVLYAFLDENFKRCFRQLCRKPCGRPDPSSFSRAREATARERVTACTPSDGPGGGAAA
- test name: inhibition of forskolin-induced cAMP accumulation assay, DOR agonist mode
- test context: read-out: DOR Agonist EC50+/-SEM
For each record, write down the corresponding pEC50.
One number for each entry, as −log10 of the molar value.

C=C[C@@H]1[C@H]2CCC[C@]1(c1cccc(O)c1)CCN2CCc1ccccc1	7.24
C=C[C@@H]1[C@@H]2CCC[C@@]1(c1cccc(O)c1)CCN2CCc1ccccc1	6.91

Pending compound:
Exam item: Could you please provide reported pEC50 for CC=C[C@@H]1C2CCC[C@@]1(c1cccc(O)c1)CCN2CCc1ccccc1 (stereo in doubt) ? Thanks!
Marked response: 7.22

----------
- measured on: delta-opioid receptor (DOR) (Homo sapiens)
- test name: inhibition of forskolin-induced cAMP accumulation assay, DOR antagonist mode versus SNC80
- Type: cell-based
- test context: versus EC50 of SNC80; read-out: DOR Antagonist IC50+/-SEM
endpoint name: pIC50
Give bare numbers, as −log10 of the molar value.

Some compounds with recorded pIC50:
C=C[C@H]1[C@H]2CCC[C@]1(c1cccc(O)c1)CCN2CCc1ccccc1	6.95
CCC=C[C@H]1[C@@H]2CCC[C@@]1(c1cccc(O)c1)CCN2CCc1ccccc1 (stereo in doubt)	8.09
CC=C[C@H]1C2CCC[C@@]1(c1cccc(O)c1)CCN2CCc1ccccc1 (stereo in doubt)	8.12

Below: the item to evaluate.
Exam item: Entry CCC=C[C@@H]1[C@H]2CCC[C@]1(c1cccc(O)c1)CCN2CCc1ccccc1 (stereo in doubt) needs its pIC50 filled in; supply it.
Marked response: 5.49

----------
Would you mind telling me the reported KOR Antagonist % Imax+/-SEM of each entry?
- measured on: UniProtKB P41145
- Sequence (P41145 whole entry): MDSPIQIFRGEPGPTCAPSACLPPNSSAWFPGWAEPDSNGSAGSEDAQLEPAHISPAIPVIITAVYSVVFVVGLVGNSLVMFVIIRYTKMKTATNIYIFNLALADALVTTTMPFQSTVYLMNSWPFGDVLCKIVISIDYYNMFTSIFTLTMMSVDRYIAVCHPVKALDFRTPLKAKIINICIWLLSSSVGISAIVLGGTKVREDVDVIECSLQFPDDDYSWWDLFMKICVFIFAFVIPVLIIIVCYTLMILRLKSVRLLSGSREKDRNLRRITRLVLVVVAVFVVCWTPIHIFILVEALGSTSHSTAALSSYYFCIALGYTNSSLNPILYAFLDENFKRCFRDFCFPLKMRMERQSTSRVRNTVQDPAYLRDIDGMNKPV
- test name: inhibition of forskolin-induced cAMP accumulation assay, KOR antagonist mode versus U50488H
- Format: cell-based
- test context: normalized to nor-BNI
Numbers only, in %.

Recorded results for 3 compounds are shown here.
C=C[C@@H]1[C@H]2CCC[C@]1(c1cccc(O)c1)CCN2CCc1ccccc1	101.8
CCC=C[C@@H]1[C@H]2CCC[C@]1(c1cccc(O)c1)CCN2CCc1ccccc1 (stereo in doubt)	103.8
CC=C[C@@H]1C2CCC[C@@]1(c1cccc(O)c1)CCN2CCc1ccccc1 (stereo in doubt)	111.8

Look up KOR Antagonist % Imax+/-SEM for the entries below, preserving their order.
1. CC=C[C@H]1[C@H]2CCC[C@]1(c1cccc(O)c1)CCN2CCc1ccccc1 (stereo in doubt)
2. C=C[C@H]1[C@H]2CCC[C@]1(c1cccc(O)c1)CCN2CCc1ccccc1
3. CCC=C[C@H]1[C@@H]2CCC[C@@]1(c1cccc(O)c1)CCN2CCc1ccccc1 (stereo in doubt)
4. CCC=C[C@H]1[C@H]2CCC[C@]1(c1cccc(O)c1)CCN2CCc1ccccc1 (stereo in doubt)
5. C=C[C@@H]1[C@@H]2CCC[C@@]1(c1cccc(O)c1)CCN2CCc1ccccc1

Marked response:
111.6
97.1
98.2
109.5
105.6

// each compound listed below needs its KOR Antagonist % Imax+/-SEM
1. CC=C[C@H]1C2CCC[C@@]1(c1cccc(O)c1)CCN2CCc1ccccc1 (stereo in doubt)
2. CC=C[C@@H]1[C@H]2CCC[C@]1(c1cccc(O)c1)CCN2CCc1ccccc1 (stereo in doubt)
3. CCC=C[C@@H]1[C@@H]2CCC[C@@]1(c1cccc(O)c1)CCN2CCc1ccccc1 (stereo in doubt)

Marked response:
[126.7, 114.8, 96.2]

Reference for the values: patent US20260022097A1
